assay_target: UniProt P81908
procedure_details: Inhibition of equine serum BuChE using butyrylthiocholine iodide as substrate preincubated for 30 mins followed by substrate addition and measured for 1 min by DTNB reagent-based spectrophotometric analysis
quantity_measured: IC50 (µM)
Please give a number only; it is taken to be in µM.

Known results for molecules:
mol | readout_value
Nc1ccc2oc(N3CCOCC3)nc2c1 | 32.3
Nc1ccc2oc(N3CCN(c4ccccn4)CC3)nc2c1 | 15.1
Nc1ccc2oc(N3CCN(Cc4ccc(Cl)cc4)CC3)nc2c1 | 3.85

Ask | // map Nc1ccc2oc(N3CCCCC3)nc2c1 to recorded IC50 (system: UniProt P81908)
Reply | 24.2

Ask | Check COc1ccc(N2CCN(c3nc4cc(N)ccc4o3)CC2)cc1 too.
Reply | 13

Ask | Check COc1ccc(C(=O)N2CCN(c3nc4cc(N)ccc4o3)CC2)cc1 too.
Reply | 7.33

Ask | Check Nc1ccc2oc(N3CCN(C(=O)c4ccc(F)cc4)CC3)nc2c1 too.
Reply | 0.817

* * *

procedure_details: Permeability of the compound in pH 7.4 PBS buffer incubated for 18 hrs by PAMPA-BBB assay
Rule: Yes for Papp at 18 h not less than 10 ×10⁻⁶ cm/s, No for anything less.

Ask | Quick check, Papp at 18 h >= 10 ×10⁻⁶ cm/s? Nc1ccc2oc(N3CCN(CCc4ccccc4)CC3)nc2c1
Reply | Yes

Ask | Check Nc1ccc2oc(N3CCN(C(=O)c4ccc(Br)cc4)CC3)nc2c1 too.
Reply | Yes

Ask | Check Nc1ccc2oc(N3CCN(Cc4ccc(Cl)cc4)CC3)nc2c1 too.
Reply | Yes

Ask | Check CC(C)c1ccc(CN2CCN(c3nc4cc(N)ccc4o3)CC2)cc1 too.
Reply | Yes

* * *

In what follows, each item is paired with its IC50 for Acetylcholinesterase (Electrophorus electricus, UniProt O42275).
Please give a number only; it is taken to be in nM.

Known results for compounds:
mol | IC50 [nM]
COc1ccc(Cl)cc1C(=O)N1CCN(c2nc3cc(N)ccc3o2)CC1 | 321
Nc1ccc2oc(N3CCN(c4ccccc4)CC3)nc2c1 | 2090
Cc1ccc(N2CCN(c3nc4cc(N)ccc4o3)CC2)cc1 | 4180

Ask | Requested field: IC50. Item: Nc1ccc2oc(N3CCN(C(=O)c4ccccc4Br)CC3)nc2c1
Reply | 445

Ask | Check Nc1ccc2oc(N3CCN(C(=O)c4ccccc4F)CC3)nc2c1 too.
Reply | 337

Ask | Check Nc1ccc2oc(N3CCN(C(=O)c4ccccc4Cl)CC3)nc2c1 too.
Reply | 559

* * *

assay_target: Cholinesterase (Equus caballus, UniProt P81908)
Sequence (P81908 whole entry): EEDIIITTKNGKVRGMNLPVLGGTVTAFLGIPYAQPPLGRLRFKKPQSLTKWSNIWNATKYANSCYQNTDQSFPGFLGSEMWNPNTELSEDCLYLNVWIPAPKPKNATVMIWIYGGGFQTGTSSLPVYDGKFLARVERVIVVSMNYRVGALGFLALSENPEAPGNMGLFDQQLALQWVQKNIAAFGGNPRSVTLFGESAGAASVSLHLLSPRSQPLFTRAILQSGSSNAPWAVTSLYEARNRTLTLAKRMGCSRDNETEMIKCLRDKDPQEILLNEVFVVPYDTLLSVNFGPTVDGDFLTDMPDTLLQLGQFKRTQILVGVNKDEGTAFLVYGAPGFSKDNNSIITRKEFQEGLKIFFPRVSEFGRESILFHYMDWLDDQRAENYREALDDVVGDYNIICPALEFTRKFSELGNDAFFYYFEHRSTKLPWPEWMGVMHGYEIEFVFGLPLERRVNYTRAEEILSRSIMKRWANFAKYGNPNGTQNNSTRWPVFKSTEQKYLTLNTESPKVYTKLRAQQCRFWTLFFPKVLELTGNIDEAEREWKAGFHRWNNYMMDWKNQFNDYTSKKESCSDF
procedure_details: Non-competitive inhibition of equine serum BuChE using varying levels of butyrylthiocholine iodide as substrate measured at 2 mins interval for 10 mins by Dixon plot analysis
quantity_measured: pKi
The read-out pKi is expressed as -log10 of concentration in moles per litre.

Ask | Requested field: pKi. Item: Nc1ccc2oc(N3CCN(C(=O)c4ccc(Br)cc4)CC3)nc2c1
Reply | 6.07

* * *

assay_target: Acetylcholinesterase (Electrophorus electricus, UniProt O42275)
Sequence (O42275 whole entry): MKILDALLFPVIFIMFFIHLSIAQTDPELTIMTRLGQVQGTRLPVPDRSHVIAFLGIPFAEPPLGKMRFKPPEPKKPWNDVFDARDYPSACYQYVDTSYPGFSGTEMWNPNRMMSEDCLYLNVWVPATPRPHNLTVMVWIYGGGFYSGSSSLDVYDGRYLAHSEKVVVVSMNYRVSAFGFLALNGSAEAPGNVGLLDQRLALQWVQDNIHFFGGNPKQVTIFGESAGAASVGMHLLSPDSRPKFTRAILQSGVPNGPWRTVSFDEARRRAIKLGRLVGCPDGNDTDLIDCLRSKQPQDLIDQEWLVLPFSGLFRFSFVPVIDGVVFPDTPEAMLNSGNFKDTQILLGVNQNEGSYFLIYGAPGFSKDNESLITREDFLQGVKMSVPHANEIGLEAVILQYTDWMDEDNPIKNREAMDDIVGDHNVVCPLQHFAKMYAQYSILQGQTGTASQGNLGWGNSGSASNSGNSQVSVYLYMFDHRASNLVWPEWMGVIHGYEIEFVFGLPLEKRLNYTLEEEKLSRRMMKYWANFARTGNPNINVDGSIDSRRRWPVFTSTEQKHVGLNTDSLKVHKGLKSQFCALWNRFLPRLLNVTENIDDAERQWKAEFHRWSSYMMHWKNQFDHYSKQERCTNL
quantity_measured: pKi
The read-out pKi is expressed as -log10 of concentration in moles per litre.

Ask | Requested field: pKi. Item: Nc1ccc2oc(N3CCN(C(=O)c4ccc(Br)cc4)CC3)nc2c1
Reply | 7.52

* * *

procedure_details: Selectivity index, ratio of IC50 for equine serum BuChE to IC50 for electric eel AChE
Rule: 1 for Ratio IC50 not less than 10, 0 for anything less.

Worked set:
mol | class_label
Nc1ccc2oc(N3CCN(c4ccc(Br)cc4)CC3)nc2c1 | 0
Nc1ccc2oc(N3CCN(C(=O)c4ccccc4Br)CC3)nc2c1 | 1
Nc1ccc2oc(N3CCN(C(=O)c4ccc(Br)cc4)CC3)nc2c1 | 1
Nc1ccc2oc(N3CCN(Cc4ccc(Br)cc4)CC3)nc2c1 | 0
Nc1ccc2oc(N3CCN(Cc4ccccc4)CC3)nc2c1 | 0

Ask | Quick check, Ratio IC50 >= 10? Nc1ccc2oc(N3CCN(C(=O)c4ccccc4F)CC3)nc2c1
Reply | 1

Ask | Check Nc1ccc2oc(N3CCN(Cc4ccc(Cl)cc4)CC3)nc2c1 too.
Reply | 0

Ask | Check Nc1ccc2oc(N3CCN(c4ccccc4)CC3)nc2c1 too.
Reply | 0

* * *

In what follows, each item is paired with its pIC50 for Acetylcholinesterase (Electrophorus electricus, UniProt O42275).
The read-out pIC50 is expressed as -log10 of concentration in moles per litre.

mol | readout_value
Cc1ccc(CN2CCN(c3nc4cc(N)ccc4o3)CC2)cc1 | 6.09
Nc1ccc2oc(NC3CCN(Cc4ccccc4)CC3)nc2c1 | 6.25
Nc1ccc2oc(N3CCN(Cc4ccc(Br)cc4)CC3)nc2c1 | 6.42
Nc1ccc2oc(N3CCN(c4ccc(F)cc4)CC3)nc2c1 | 5.84

Ask | // map CC(C)c1ccc(CN2CCN(c3nc4cc(N)ccc4o3)CC2)cc1 to recorded pIC50 (system: Acetylcholinesterase (Electrophorus electricus, UniProt O42275))
Reply | 6.03

Ask | Check Nc1ccc2oc(N3CCN(Cc4ccccc4)CC3)nc2c1 too.
Reply | 6.04

Ask | Check COc1ccc(N2CCN(c3nc4cc(N)ccc4o3)CC2)cc1 too.
Reply | 5.68

Ask | Check Nc1ccc2oc(N3CCN(C(=O)c4ccc(F)cc4)CC3)nc2c1 too.
Reply | 7.14

Ask | Check COc1ccccc1C(=O)N1CCN(c2nc3cc(N)ccc3o2)CC1 too.
Reply | 6.03

Ask | Check Nc1ccc2oc(N3CCN(C(=O)c4cccc(F)c4)CC3)nc2c1 too.
Reply | 6.64

Ask | Check Nc1ccc2oc(N3CCN(C(=O)c4ccc5c(c4)OCO5)CC3)nc2c1 too.
Reply | 6.21

* * *

Reported Ratio IC50 values for the following molecules.
procedure_details: Selectivity index, ratio of IC50 for equine serum BuChE to IC50 for electric eel AChE

Known results for molecules:
mol | Ratio IC50
Nc1ccc2oc(N3CCN(c4ccc(F)cc4)CC3)nc2c1 | 4.4
Nc1ccc2oc(N3CCN(c4ccc(Cl)cc4)CC3)nc2c1 | 5.6
COc1ccc(N2CCN(c3nc4cc(N)ccc4o3)CC2)cc1 | 6.1

Ask | Requested field: Ratio IC50. Item: Nc1ccc2oc(N3CCOCC3)nc2c1
Reply | 4.5

Ask | Check COc1ccc(CN2CCN(c3nc4cc(N)ccc4o3)CC2)cc1 too.
Reply | 8.4

Ask | Check Cc1ccc(N2CCN(c3nc4cc(N)ccc4o3)CC2)cc1 too.
Reply | 2.1

Ask | Check Nc1ccc2oc(NC3CCN(Cc4ccccc4)CC3)nc2c1 too.
Reply | 4

Ask | Check Nc1ccc2oc(N3CCN(C(=O)c4cccc(Cl)c4)CC3)nc2c1 too.
Reply | 18.9

Ask | Check CC(C)c1ccc(CN2CCN(c3nc4cc(N)ccc4o3)CC2)cc1 too.
Reply | 11.9

* * *

Reported IC50 values for the following compounds.
assay_target: UniProt P81908
procedure_details: Inhibition of equine serum BuChE using butyrylthiocholine iodide as substrate preincubated for 30 mins followed by substrate addition and measured for 1 min by DTNB reagent-based spectrophotometric analysis
Please give a number only; it is taken to be in µM.

Known results for compounds:
mol | readout_value
CC(C)c1ccc(CN2CCN(c3nc4cc(N)ccc4o3)CC2)cc1 | 11.3
Cc1ccc(CN2CCN(c3nc4cc(N)ccc4o3)CC2)cc1 | 5.19
Cc1ccc(N2CCN(c3nc4cc(N)ccc4o3)CC2)cc1 | 9.01
Nc1ccc2oc(N3CCN(c4ccc(F)cc4)CC3)nc2c1 | 6.48
Nc1ccc2oc(N3CCN(C(=O)c4ccccc4F)CC3)nc2c1 | 8.39
Nc1ccc2oc(N3CCN(C(=O)c4ccccc4)CC3)nc2c1 | 6.05
Nc1ccc2oc(N3CCN(C(=O)c4ccc5c(c4)OCO5)CC3)nc2c1 | 1.52
Nc1ccc2oc(N3CCN(C(=O)c4ccccc4Cl)CC3)nc2c1 | 4.86

Ask | // map Nc1ccc2oc(N3CCN(c4ccccc4)CC3)nc2c1 to recorded IC50 (system: UniProt P81908)
Reply | 16.8

Ask | Check Nc1ccc2oc(N3CCN(C(=O)c4cccc(Br)c4)CC3)nc2c1 too.
Reply | 2.68

Ask | Check COc1ccccc1C(=O)N1CCN(c2nc3cc(N)ccc3o2)CC1 too.
Reply | 7.38

Ask | Check COc1ccc(Cl)cc1C(=O)N1CCN(c2nc3cc(N)ccc3o2)CC1 too.
Reply | 1.36

Ask | Check Nc1ccc2oc(N3CCN(C(=O)c4cccc(Cl)c4)CC3)nc2c1 too.
Reply | 4.56

Ask | Check Nc1ccc2oc(N3CCN(C(=O)c4ccccc4Br)CC3)nc2c1 too.
Reply | 6.19

Ask | Check COc1ccc(CN2CCN(c3nc4cc(N)ccc4o3)CC2)cc1 too.
Reply | 6.33

Ask | Check Nc1ccc2oc(N3CCN(Cc4ccc(F)cc4)CC3)nc2c1 too.
Reply | 3.11

Ask | Check Nc1ccc2oc(N3CCN(c4ccc(Br)cc4)CC3)nc2c1 too.
Reply | 8.76

Ask | Check Nc1ccc2oc(N3CCN(c4ccc(Cl)cc4)CC3)nc2c1 too.
Reply | 11.1

Ask | Check Nc1ccc2oc(N3CCN(Cc4ccc(Br)cc4)CC3)nc2c1 too.
Reply | 2.97

Ask | Check Nc1ccc2oc(N3CCN(C(=O)c4ccc(Cl)cc4)CC3)nc2c1 too.
Reply | 3.32

Ask | Check Nc1ccc2oc(N3CCN(CCc4ccccc4)CC3)nc2c1 too.
Reply | 0.957
